- study target: cGMP-dependent protein kinase 2 (Homo sapiens) (UniProt Q13237);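 further: mean inhibition of PRKG2 from the GSK PKIS screen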
- Sequence (Q13237 whole entry): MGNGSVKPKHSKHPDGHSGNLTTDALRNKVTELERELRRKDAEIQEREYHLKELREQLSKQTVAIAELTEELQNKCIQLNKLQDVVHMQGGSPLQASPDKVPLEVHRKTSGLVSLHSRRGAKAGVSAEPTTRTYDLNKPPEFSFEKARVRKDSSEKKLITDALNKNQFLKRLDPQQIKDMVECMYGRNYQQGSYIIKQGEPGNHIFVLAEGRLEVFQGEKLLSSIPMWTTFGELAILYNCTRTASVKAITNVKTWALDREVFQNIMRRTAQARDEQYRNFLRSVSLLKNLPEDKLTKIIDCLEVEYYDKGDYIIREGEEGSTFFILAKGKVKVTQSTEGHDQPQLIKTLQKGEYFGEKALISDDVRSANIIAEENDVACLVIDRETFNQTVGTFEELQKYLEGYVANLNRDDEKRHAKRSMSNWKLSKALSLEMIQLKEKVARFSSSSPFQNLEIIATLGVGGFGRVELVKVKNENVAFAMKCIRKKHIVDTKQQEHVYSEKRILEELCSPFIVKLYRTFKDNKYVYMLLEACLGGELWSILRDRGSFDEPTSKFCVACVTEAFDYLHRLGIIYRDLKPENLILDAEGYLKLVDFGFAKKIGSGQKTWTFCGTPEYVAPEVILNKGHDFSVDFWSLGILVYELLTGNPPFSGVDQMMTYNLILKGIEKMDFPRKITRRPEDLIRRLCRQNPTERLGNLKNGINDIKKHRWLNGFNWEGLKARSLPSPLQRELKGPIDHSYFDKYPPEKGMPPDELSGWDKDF
- condition parameters: at 1 µM
Classify by measured inhibition: Criterion met if it is equal to or exceeds 6%, Criterion not met if it is smaller.

[
  {
    "given smiles": "[O-][S+]1CCN(Cc2ccc(-c3ccc4ncnc(Nc5ccc(OCc6cccc(F)c6)c(Cl)c5)c4c3)o2)CC1",
    "study target": "cGMP-dependent protein kinase 2 (Homo sapiens) (UniProt Q13237)",
    "assigned label": "Criterion not met"
  },
  {
    "given smiles": "CCN1CCC(CC(=O)Nc2n[nH]c3nnc(-c4cccc(F)c4F)cc23)CC1",
    "study target": "cGMP-dependent protein kinase 2 (Homo sapiens) (UniProt Q13237)",
    "assigned label": "Criterion not met"
  }
]

Request: Tell me whether inhibition is at least 6% here: COc1ccc2[nH]c3c4[nH]c5ccc(OC)cc5c4c4c(c3c2c1)C(=O)NC4=O
Response: Criterion met

Request: Tell me whether inhibition is at least 6% here: CCOc1ccc2c(-c3ccnc(Nc4cccc(C(F)(F)F)c4)n3)cnn2n1
Response: Criterion not met

###

inhibition values by entry
- study target: Serine/threonine-protein kinase PAK 2 (Homo sapiens) (UniProt Q13177);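 further: values are mean percent inhibition of PAK2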
- Sequence (Q13177 whole entry): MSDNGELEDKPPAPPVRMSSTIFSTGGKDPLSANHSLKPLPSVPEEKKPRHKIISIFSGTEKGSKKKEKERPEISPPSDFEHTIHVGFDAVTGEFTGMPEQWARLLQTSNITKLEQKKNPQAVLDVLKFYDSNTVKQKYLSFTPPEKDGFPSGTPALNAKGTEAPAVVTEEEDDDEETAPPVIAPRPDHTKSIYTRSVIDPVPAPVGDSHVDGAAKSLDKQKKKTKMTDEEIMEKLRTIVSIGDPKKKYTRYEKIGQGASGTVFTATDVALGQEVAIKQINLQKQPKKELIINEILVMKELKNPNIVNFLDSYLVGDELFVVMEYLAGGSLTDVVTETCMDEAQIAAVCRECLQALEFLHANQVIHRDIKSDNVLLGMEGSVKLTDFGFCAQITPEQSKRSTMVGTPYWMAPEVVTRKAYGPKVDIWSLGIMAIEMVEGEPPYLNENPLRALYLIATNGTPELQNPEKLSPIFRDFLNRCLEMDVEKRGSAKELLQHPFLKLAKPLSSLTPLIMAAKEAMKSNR
- condition parameters: at 0.1 µM

Please review the entries below; each comes with its answer.
[
  {
    "given smiles": "CCCN1CCC(c2ccc(Nc3nc(Nc4cc(F)ccc4C(N)=O)c4cc[nH]c4n3)c(OC)c2)CC1",
    "inhibition": "1.19%"
  },
  {
    "given smiles": "N#Cc1c(NC(=O)CN2CCOCC2)sc2c1CCCC2",
    "inhibition": "1.25%"
  },
  {
    "given smiles": "CCOc1ccc2c(-c3ccnc(Nc4cccc(C(F)(F)F)c4)n3)cnn2n1",
    "inhibition": "-0.07%"
  }
]

Switching to the query record.
Request: Read the entry COc1cc(N2CCN(C(C)C)CC2)ccc1Nc1nc(Nc2ccc(F)cc2C(N)=O)c2cc[nH]c2n1 and write its reported inhibition.
Response: 0.48%

###

- study target: Cyclin-dependent kinase 5 (Homo sapiens);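 further: enzyme tested as the CDK5/p35 complex, values are mean percent inhibition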
- condition parameters: at 0.1 µM
inhibition values by entry
All answers are understood in %, so give the number only.

[
  {
    "given smiles": "COc1cccc(-n2ncc3c(N/N=C/c4ccc(F)cc4)ncnc32)c1",
    "observable": "inhibition",
    "endpoint value": 9.38
  },
  {
    "given smiles": "c1cc(-c2cnn3nc(N4CCOCC4)ccc23)nc(NC2CC2)n1",
    "observable": "inhibition",
    "endpoint value": 2.71
  }
]

Request: Read the entry NS(=O)(=O)c1ccc(Nc2ncc(-c3ccccc3)o2)cc1 and write its reported inhibition.
Response: 23.8

Request: Read the entry Cc1cccc(Nc2ncc(-c3ccccc3)o2)c1 and write its reported inhibition.
Response: 1.51

Request: Read the entry Cc1cccc2c1NC(=O)/C2=N\Nc1ccc(S(N)(=O)=O)cc1 and write its reported inhibition.
Response: 0.68

###

- study target: Dual specificity tyrosine-phosphorylation-regulated kinase 1B (Homo sapiens) (UniProt Q9Y463);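 further: values are mean percent inhibition of DYRK1B, from the GSK_PKIS set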
- Sequence (Q9Y463 whole entry, looked up): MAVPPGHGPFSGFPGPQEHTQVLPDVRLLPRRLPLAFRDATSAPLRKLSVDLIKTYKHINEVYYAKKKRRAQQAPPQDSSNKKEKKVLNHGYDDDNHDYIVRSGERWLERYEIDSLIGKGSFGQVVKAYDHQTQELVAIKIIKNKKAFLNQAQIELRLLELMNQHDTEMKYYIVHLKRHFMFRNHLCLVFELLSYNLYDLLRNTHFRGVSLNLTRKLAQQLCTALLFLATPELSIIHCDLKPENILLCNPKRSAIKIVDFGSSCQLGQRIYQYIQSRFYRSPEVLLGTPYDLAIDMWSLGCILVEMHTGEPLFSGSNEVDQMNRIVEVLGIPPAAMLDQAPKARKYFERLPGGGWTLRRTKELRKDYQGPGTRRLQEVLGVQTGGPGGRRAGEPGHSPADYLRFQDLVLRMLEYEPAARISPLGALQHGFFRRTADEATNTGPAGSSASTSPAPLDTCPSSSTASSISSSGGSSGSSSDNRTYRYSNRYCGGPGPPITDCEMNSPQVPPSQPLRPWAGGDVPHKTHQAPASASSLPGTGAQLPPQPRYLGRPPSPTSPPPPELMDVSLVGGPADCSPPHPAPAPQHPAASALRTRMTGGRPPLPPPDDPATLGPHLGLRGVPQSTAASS
- condition parameters: at 1 µM
observable: inhibition (%)
All answers are understood in %, so give the number only.

Please review the entries below; each comes with its answer.
[
  {
    "given smiles": "c1ccc(-c2nc3n(c2-c2ccc4c(c2)OCO4)CCC3)nc1",
    "endpoint value": 5.19
  },
  {
    "given smiles": "NS(=O)(=O)c1ccc(N/N=C2\\C(=O)Nc3ccc4ncccc4c32)cc1",
    "endpoint value": 54.8
  },
  {
    "given smiles": "Nc1nc(-c2cccc(Cl)c2)c(-c2ccc3ncccc3n2)s1",
    "endpoint value": 12.7
  },
  {
    "given smiles": "COc1ccc(-c2oc3ncnc(N)c3c2-c2ccc(NC(=O)Nc3cc(C(F)(F)F)ccc3F)cc2)cc1",
    "endpoint value": 2.26
  },
  {
    "given smiles": "Fc1cccc(COc2ccc(Nc3ncnc4sc(-c5ccco5)cc34)cc2Cl)c1",
    "endpoint value": 0.72
  }
]

Request: Read the entry CCCN(CCS(C)(=O)=O)Cc1ccc(-c2ccc3ncnc(Nc4ccc(OCc5cccc(F)c5)c(Cl)c4)c3c2)o1 and write its reported inhibition.
Response: 10.4

Request: Read the entry CCn1c(-c2nonc2N)nc2c(C#CC(C)(C)O)nc(OC[C@H](N)c3ccccc3)cc21 and write its reported inhibition.
Response: 2.57

Request: Read the entry CCc1nn2ncccc2c1-c1ccnc(NC2CC2)n1 and write its reported inhibition.
Response: 5.27
